experiment: Rate constant for hydrolysis at pH 10; format: ADME; conditions: buffer
assay metric: k

>  <compound>
CO/N=C(\C(=O)NC1CN2CC(c3cccs3)=C(C(=O)O)N2C1=O)c1csc(N)n1 (centres undefined)

>  <assay metric>
k

>  <observed result>
0.19 h⁻¹

$$$$
>  <compound>
CO/N=C(\C(=O)NC1CN2CC(c3ccccc3)=C(C(=O)O)N2C1=O)c1csc(N)n1 (centres undefined)

>  <assay metric>
k

>  <observed result>
0.146 h⁻¹

$$$$
>  <compound>
CO/N=C(\C(=O)NC1CN2N(C1=O)C(C(=O)O)=C(C(=O)OC)C2(C)C)c1csc(N)n1 (centres undefined)

>  <assay metric>
k

>  <observed result>
0.769 h⁻¹

$$$$
>  <compound>
CO/N=C(\C(=O)NC1CN2CC(C(=O)O)=C(C(=O)O)N2C1=O)c1csc(N)n1 (centres undefined)

>  <assay metric>
k

>  <observed result>
0.324 h⁻¹

$$$$
